CC50 at 2 days: recorded values
Experiment: Cytotoxicity assay in Vero E6 cells (neutral red uptake)
Type: cell-based
Details: African green monkey; Vero E6 cells, 2 days at 37° C., neutral red uptake; read-out: Vero CC50
REPORTED_ENDPOINT: CC50 at 2 days (µM)

- Cc1ccc(OCCN(C)C)cc1C(=O)N[C@@H](C)c1cc(-c2ccnn2C)nc2ccccc12: 64.7
- Cc1ccc(OCCN(C)C)cc1C(=O)N[C@H](C)c1cc(-c2ccc(N)nc2)nc2ccccc12: 36.2
- Cc1ccc(OCCN(C)C)cc1C(=O)N[C@H](C)c1cc(-c2cnn(CC(=O)N3CCCC3)c2)nc2ccccc12: 26.4
- Cc1ccc(OCCN(C)C)cc1C(=O)N[C@H](C)c1cc(-c2cccc3[nH]ncc23)nc2ccccc12: 59.5
- Cc1ccc(N2CCN(C)C3(CC3)C2)cc1C(=O)N[C@H](C)c1cc(-c2ccn(C)n2)nc2ccccc12: 40.8
- CCn1ccc(-c2cc([C@@H](C)NC(=O)c3cc(OC[C@@H]4CCCN4C)ccc3C)c3ccccc3n2)n1: 27
- CCn1ccc(-c2cc([C@@H](C)NC(=O)c3cc(N4CCN(C)[C@H](C)C4)ccc3C)c3ccccc3n2)n1: 30.5

Recorded values, source patent US20240382494A1.
